# STUDY SYSTEM: cellular PARG (Homo sapiens, UniProt Q86W56)
# Construct: endogenous in cells
# Sequence (Q86W56 whole entry): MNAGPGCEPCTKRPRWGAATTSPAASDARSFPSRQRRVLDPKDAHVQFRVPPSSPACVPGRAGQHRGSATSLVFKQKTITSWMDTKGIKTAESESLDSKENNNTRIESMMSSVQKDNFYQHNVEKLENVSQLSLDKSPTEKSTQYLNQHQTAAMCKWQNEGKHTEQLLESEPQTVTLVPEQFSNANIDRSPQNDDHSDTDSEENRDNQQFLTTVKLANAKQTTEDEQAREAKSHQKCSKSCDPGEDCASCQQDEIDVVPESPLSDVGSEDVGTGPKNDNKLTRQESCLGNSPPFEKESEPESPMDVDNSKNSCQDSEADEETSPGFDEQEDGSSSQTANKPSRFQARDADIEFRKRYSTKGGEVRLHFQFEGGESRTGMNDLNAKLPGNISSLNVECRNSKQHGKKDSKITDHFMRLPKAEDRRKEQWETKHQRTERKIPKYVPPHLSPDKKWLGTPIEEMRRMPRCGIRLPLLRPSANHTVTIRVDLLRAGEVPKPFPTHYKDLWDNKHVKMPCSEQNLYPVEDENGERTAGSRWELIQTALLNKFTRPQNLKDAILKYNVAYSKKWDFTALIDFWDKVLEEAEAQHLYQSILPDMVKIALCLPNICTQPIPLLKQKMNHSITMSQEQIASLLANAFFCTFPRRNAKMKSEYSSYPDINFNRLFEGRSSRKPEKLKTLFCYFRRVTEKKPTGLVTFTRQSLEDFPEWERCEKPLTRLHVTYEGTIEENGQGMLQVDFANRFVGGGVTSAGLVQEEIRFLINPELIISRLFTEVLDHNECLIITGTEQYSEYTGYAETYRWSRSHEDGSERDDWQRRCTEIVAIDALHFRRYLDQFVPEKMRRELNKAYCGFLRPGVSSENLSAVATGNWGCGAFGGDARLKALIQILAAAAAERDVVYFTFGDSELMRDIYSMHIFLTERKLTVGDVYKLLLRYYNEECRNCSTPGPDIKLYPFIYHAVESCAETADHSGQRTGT
# PROCEDURE TEXT: Nuclear PAR accumulation assay (immunofluorescence high-content imaging, MMS-treated HeLa cells)
# STUDY CONDITIONS: 1 hour compound then MMS 50 μg/mL for an additional hour
pIC50: −log10 of the molar value.
Measured pIC50 values are reported for all entries that follow.

// known answers, use as guide
In [3]: df
Out[3]:
                                  structure                              study_system        result
0  COC1(C(=O)N2CCN(c3cc(S(=O)(=O)NC4(C)CC4)cc4c3N3C(=NC[C@H]3C)N(C)C4=O)CC2)CC1  cellular PARG (Homo sapiens, UniProt Q86W56)        > 7.00
1  [2H]C([2H])([2H])n1nccc1C#C[C@@H]1CN=C2N(Cc3cnn(C)c3)C(=O)c3cc(S(=O)(=O)NC4(C)CC4)ccc3N21  cellular PARG (Homo sapiens, UniProt Q86W56)        > 7.00
2  CCn1nccc1C#C[C@@H]1CN=C2N(Cc3cnn(C)c3)C(=O)c3cc(S(=O)(=O)NC4(C)CC4)ccc3N21  cellular PARG (Homo sapiens, UniProt Q86W56)        > 7.00
3  C[C@@H]1CN=C2N(CCCO)C(=O)c3cc(S(=O)(=O)NC4(C)CC4)ccc3N21  cellular PARG (Homo sapiens, UniProt Q86W56)  5.00 to 6.00
4  Cc1cc(F)ccc1-c1cc(S(=O)(=O)NC2(C)CC2)cc2c1N1CCN=C1N(Cc1cnn(C)c1)C2=O  cellular PARG (Homo sapiens, UniProt Q86W56)        > 7.00
5  [2H]C([2H])(c1cnn(C)c1)N1C(=O)c2cc(S(=O)(=O)NC3(C)CC3)ccc2N2C1=NC[C@H]2C#CC1(N(CC)CC)CC1  cellular PARG (Homo sapiens, UniProt Q86W56)        > 7.00

Attention now turns to another entry.
So what's the measured pIC50 for this one? C[C@@H]1CN=C2N(Cc3cnn(C)c3)C(=O)c3cc(S(=O)(=O)NC4(C)CC4)cc(N4C[C@H](C)N[C@@H](C)C4)c3N21
5.00 to 6.00

###

Measured IC50 of individual entries
# STUDY SYSTEM: cellular PARG (Homo sapiens)
# Construct: endogenous in cells
# PROCEDURE TEXT: Nuclear PAR accumulation assay (immunofluorescence high-content imaging, MMS-treated HeLa cells)
# STUDY CONDITIONS: 1 hour compound then MMS 50 μg/mL for an additional hour

The following compounds have reported results that may help.
>>> df
                                  structure  measured_endpoint            result
0  [2H]C([2H])(c1cnn(C)c1)N1C(=O)c2cc(S(=O)(=O)NC3(C)CC3)cc(Br)c2N2C1=NC[C@H]2C#C               IC50          < 100 nM
1  CN1C(=O)c2cc(S(=O)(=O)NC3(C)CC3)cc(C3=CCN(C(=O)C4CC4)CC3)c2N2CC(C)(C)N=C12               IC50    100 to 1000 nM
2  [2H]C([2H])(c1cnn(C)c1)N1C(=O)c2cc(S(=O)(=O)NC3(C)CC3)c(N(C)C)cc2N2C1=N[C@H]1CCC[C@H]12               IC50  1000 to 10000 nM
3  C[C@@H]1CON=C2N(Cc3cnn(C)c3)C(=O)c3cc(S(=O)(=O)NC4(C)CC4)ccc3N21               IC50          < 100 nM
4  Cn1cc(CN2C(=O)c3cc(S(=O)(=O)NC4(C)CC4)ccc3N3C2=NC[C@H]3C#Cc2cnnn2C)cn1               IC50          < 100 nM
5  Cc1cc(C#C[C@@H]2CN=C3N(C)C(=O)c4cc(S(=O)(=O)NC5(C)CC5)ccc4N32)ccn1               IC50          < 100 nM

IC50 for C#C[C@@H]1[C@H](C)N=C2N(Cc3cnn(C)c3)C(=O)c3cc(S(=O)(=O)NC4(C)CC4)ccc3N21 ?
< 100 nM

Could you share which IC50 value was measured for COc1ccc2ncc(C#C[C@@H]3CN=C4N(C)C(=O)c5cc(S(=O)(=O)NC6(C)CC6)ccc5N43)n2n1 ?
< 100 nM

I am curious: what IC50 value has been reported for CCN1C(=O)c2cc(S(=O)(=O)NC3(C)CC3)ccc2N2C1=NC[C@H]2C#CC1(N(C)C)CC1 ?
< 100 nM

Consider the compound C[C@@H]1CN=C2N(Cc3cnn(C)c3)C(=O)c3cc(S(=O)(=O)NC4(C)CC4)cc(-c4ccc(F)cn4)c3N21 and give its measured IC50.
< 100 nM

Give its IC50 value. Item: Cc1nc([C@@H]2CN=C3N(Cc4cnn(C)c4)C(=O)c4cc(S(=O)(=O)NC5(C)CC5)ccc4N32)co1
100 to 1000 nM

// lookup IC50 for C[C@@H]1[C@H](CO)N=C2N(Cc3cnn(C)c3)C(=O)c3cc(S(=O)(=O)NC4(C)CC4)ccc3N21
< 100 nM

Recorded IC50 for [2H]C([2H])(c1cnn(C)c1)N1C(=O)c2cc(S(=O)(=O)NC3(C)CC3)ccc2N2C1=NC[C@H]2COCCN(C)C , please?
100 to 1000 nM

Fill in the blank: the reported IC50 of Cn1cc(CN2C(=O)c3cc(S(=O)(=O)NC4(C)CC4)ccc3N3C2=NC[C@H]3C#Cc2ccccc2)cn1 is ____.
< 100 nM

###

# STUDY SYSTEM: cellular PARG (Homo sapiens, UniProt Q86W56)
# Construct: endogenous in cells
# PROCEDURE TEXT: Nuclear PAR accumulation assay (immunofluorescence high-content imaging, MMS-treated HeLa cells)
# STUDY CONDITIONS: 1 hour compound then MMS 50 μg/mL for an additional hour
pIC50: −log10 of the molar value.
MEASURED ENDPOINT: pIC50

# query: pIC50 of entry [2H]C([2H])(c1cnn(C)c1)N1C(=O)c2cc(S(=O)(=O)NC3(C)CC3)ccc2N2C1=N[C@H]1CNC[C@H]12
6.00 to 7.00

Consider the molecule shown here: Cn1cc(CN2C(=O)c3cc(S(=O)(=O)NC4(C)CC4)ccc3N3C2=NC[C@H]3C#C[C@H]2CCCN2)cn1 What is its recorded pIC50?
6.00 to 7.00

###

As shown below, each of these compounds has a reported pIC50 value.
# STUDY SYSTEM: cellular PARG (Homo sapiens, UniProt Q86W56)
# Construct: endogenous in cells
# PROCEDURE TEXT: Nuclear PAR accumulation assay (immunofluorescence high-content imaging, MMS-treated HeLa cells)
# STUDY CONDITIONS: 1 hour compound then MMS 50 μg/mL for an additional hour
# Protocol: HeLa cells were plated at 15,000 cells/well in a 96-well plate the day before compound treatment and then treated with varying concentrations of test compound and incubated for 1 hour at 37° C.+5% CO2. […] Nuclear PAR accumulation was evaluated using high-content fluorescence microscopy. Four fields for each well were acquired at 20× magnification resulting in at least 1,000 cells analyzed per well. […] Both the average intensity per nucleus and percent PAR positive cells were quantified. […]
pIC50: −log10 of the molar value.

Return reported pIC50; argument: Cn1cc(CN2C(=O)c3cc(S(=O)(=O)NC4(C)CC4)cc(-c4ccc(F)cc4)c3N3CC(C)(C)N=C23)cn1 [Example 17]
> 7.00

What does the data say about its pIC50? Entry: [2H]C([2H])(c1cnn(C)c1)N1C(=O)c2cc(S(=O)(=O)NC3(C)CC3)ccc2N2C1=NC[C@H]2C#CC1(C)CC1 [Example 49]
> 7.00

Return reported pIC50; argument: CNC1(C#C[C@@H]2CN=C3N(Cc4cnn(C)c4)C(=O)c4cc(S(=O)(=O)NC5(C)CC5)ccc4N32)CC1 [Example 127]
> 7.00

Recorded pIC50 of [2H]C([2H])(c1cnn(C)c1)N1C(=O)c2cc(S(=O)(=O)NC3(C)CC3)ccc2N2C1=NC[C@H]2C#Cc1cnn(C)c1 [Example 97] , please.
> 7.00

Entry under review: [2H]C([2H])(c1cnn(C)c1)N1C(=O)c2cc(S(=O)(=O)NC3(C)CC3)ccc2N2C1=N[C@@H]1C[C@@H](N)C[C@@H]12 [Example 283] . Reported pIC50?
5.00 to 6.00

Would you mind telling me what pIC50 value was observed for COc1ccc(C(=O)/C=C/C(=O)N2CCN(c3cc(S(=O)(=O)NC4(C)CC4)cc4c3N3C(=NC[C@H]3C)N(C)C4=O)CC2)cc1 [Example 57] ?
6.00 to 7.00
